System: KRAS-mutant PDC multicell tumor spheroid viability
test-protocol: Anticancer human tumor 521955-158-R2-J5-PDC patient-derived pancreatic carcinoma cell line growth inhibition [KRAS2]
settings: second compound 0.1 µM; first compound 0.0316 µM; stronger effect = lower value
assay-metric: viability, T/C (%)
Please reply with the bare figure in % and do not write the unit itself.

// solved cases for viability, T/C follow
• CCNC(=O)CC1N=C(c2ccc(Cl)cc2)c2cc(OC)ccc2-n2c(C)nnc21 (stereo not given) + CC1OCC2(CCN(c3cnc(Sc4ccnc(N)c4Cl)c(N)n3)CC2)C1N = 71.5
• CC1COCCN1c1cc(-c2ccnn2C)c2ccnc(-c3ccn[nH]3)c2n1 (stereo not given) + COc1cc2nc(C)nc(NC(C)c3cc(N)cc(C(F)(F)F)c3)c2cc1OC1CCOC1 = 31.8
• O=C(c1cc(Cc2n[nH]c(=O)c3ccccc23)ccc1F)N1CCN(C(=O)C2CC2)CC1 + C=CC(=O)N1CCN(c2nc(=O)n(-c3c(C)ccnc3C(C)C)c3nc(-c4c(O)cccc4F)c(F)cc23)C(C)C1 = 115
• COc1cc2nccc(Oc3ccc(NC(=O)C4(C(=O)Nc5ccc(F)cc5)CC4)cc3)c2cc1OC + C=CC(=O)N1CCN(c2nc(=O)n(-c3c(C)ccnc3C(C)C)c3nc(-c4c(O)cccc4F)c(F)cc23)C(C)C1 = 114

**Q:** Field request: viability, T/C | item: CC1COCCN1c1cc(-c2ccnn2C)c2ccnc(-c3ccn[nH]3)c2n1 (stereo not given) + C=CC(=O)N1CCN(c2nc(OCC3CCCN3C)nc3c2CCN(c2cccc4cccc(C)c24)C3)CC1CC#N
**A:** 46.4

* * *

Tested on: KRAS-mutant PDC multicell tumor spheroid viability
test-protocol: Anticancer human tumor 521955-158-R2-J5-PDC cell line growth inhibition [KRAS2];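 note: viability read after seven days of drug exposure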
settings: second compound 0.316 µM; first compound 0.0316 µM; stronger effect = lower value
Overview of recorded viability, T/C for various compounds
Please reply with the bare figure in % and do not write the unit itself.

// solved cases for viability, T/C follow
• CC1COCCN1c1cc(-c2ccnn2C)c2ccnc(-c3ccn[nH]3)c2n1 (stereo unspecified) + C=CC(=O)N1CCN(c2nc(OCC3CCCN3C)nc3c2CCN(c2cccc4cccc(C)c24)C3)CC1CC#N = 32
• Cn1nccc1Nc1nccc(-c2cc3c(s2)C(C)(C)N(CCN2CCOCC2)C3=O)n1 + C=CC(=O)N1CCN(c2nc(OCC3CCCN3C)nc3c2CCN(c2cccc4cccc(C)c24)C3)CC1CC#N = 78.4
• CC1(C)CCC(CN2CCN(c3ccc(C(=O)NS(=O)(=O)c4ccc(NCC5CCOCC5)c([N+](=O)[O-])c4)c(Oc4cnc5[nH]ccc5c4)c3)CC2)=C(c2ccc(Cl)cc2)C1 + CNCc1ccccc1-c1csc(C(C)Nc2nc(C)nc3cc(OC)c(OC)cc23)c1 = 90.2
• COc1cc(Nc2ncc3c(n2)-c2ccc(Cl)cc2C(c2c(F)cccc2OC)=NC3)ccc1C(=O)O + COc1cc2nc(C)nc(NC(C)c3cc(N)cc(C(F)(F)F)c3)c2cc1OC1CCOC1 = 45.3
• CC1COCCN1c1cc(-c2ccnn2C)c2ccnc(-c3ccn[nH]3)c2n1 (stereo unspecified) + CNCc1ccccc1-c1csc(C(C)Nc2nc(C)nc3cc(OC)c(OC)cc23)c1 = 35

Please turn your attention to the following entry.
**Q:** Field request: viability, T/C | item: CC1COCCN1c1cc(-c2ccnn2C)c2ccnc(-c3ccn[nH]3)c2n1 (stereo unspecified) + CC1OCC2(CCN(c3cnc(Sc4ccnc(N)c4Cl)c(N)n3)CC2)C1N
**A:** 25.4

* * *

Tested on: KRAS-mutant PDC multicell tumor spheroid viability
test-protocol: Anticancer human tumor 521955-158-R2-J5-PDC cell line growth inhibition [KRAS2];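 note: viability read after seven days of drug exposure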
settings: second compound 0.316 µM; first compound 0.0316 µM; stronger effect = lower value
assay-metric: viability, T/C (%)
Please reply with the bare figure in % and do not write the unit itself.

* O=C(c1cc(Cc2n[nH]c(=O)c3ccccc23)ccc1F)N1CCN(C(=O)C2CC2)CC1 + CNCc1ccccc1-c1csc(C(C)Nc2nc(C)nc3cc(OC)c(OC)cc23)c1 | 86.7

**Q:** Field request: viability, T/C | item: CC(=O)Nc1cccc(-n2c(=O)n(C3CC3)c(=O)c3c(Nc4ccc(I)cc4F)n(C)c(=O)c(C)c32)c1 + C=CC(=O)N1CCN(c2nc(OCC3CCCN3C)nc3c2CCN(c2cccc4cccc(C)c24)C3)CC1CC#N
**A:** 8.09

**Q:** Field request: viability, T/C | item: CC(C)n1nc(-c2ccc3oc(N)nc3c2)c2c(N)ncnc21 + C=CC(=O)N1CCN(c2nc(OCC3CCCN3C)nc3c2CCN(c2cccc4cccc(C)c24)C3)CC1CC#N
**A:** 27

**Q:** Field request: viability, T/C | item: COC(=O)c1ccc2c(C(=Nc3ccc(N(C)C(=O)CN4CCN(C)CC4)cc3)c3ccccc3)c(O)[nH]c2c1 + CNCc1ccccc1-c1csc(C(C)Nc2nc(C)nc3cc(OC)c(OC)cc23)c1
**A:** 90

**Q:** Field request: viability, T/C | item: CN(C)C/C=C/C(=O)Nc1cc2c(Nc3ccc(F)c(Cl)c3)ncnc2cc1O[C@H]1CCOC1 + C=CC(=O)N1CCN(c2nc(OCC3CCCN3C)nc3c2CCN(c2cccc4cccc(C)c24)C3)CC1CC#N
**A:** 54.7

* * *

Overview of recorded viability, T/C for various compounds
Tested on: KRAS-mutant PDC multicell tumor spheroid viability
test-protocol: Anticancer human tumor 521955-158-R2-J5-PDC cell line growth inhibition [KRAS2];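 note: viability read after seven days of drug exposure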
settings: second compound 1 µM; first compound 0.316 µM; stronger effect = lower value
Description: Multicellular complex tumor spheroid response to RAS pathway inhibitors in combination with a targeted agents in patient-derived cell lines with oncogenic KRAS variants from multiple cancer types A high-throughput screen of multi-cell type tumor spheroids was designed to identify active combinations of targeted small molecules and KRAS pathway inhibitors. […] Compounds. […] If the clinical Cmax for an agent had not been determined, the highest concentration tested was 10 microM. […]
Please reply with the bare figure in % and do not write the unit itself.

• CCNC(=O)CC1N=C(c2ccc(Cl)cc2)c2cc(OC)ccc2-n2c(C)nnc21 (stereo not given) + COc1cc2nc(C)nc(NC(C)c3cc(N)cc(C(F)(F)F)c3)c2cc1OC1CCOC1 = 50.1
• COc1cc2nccc(Oc3ccc(NC(=O)C4(C(=O)Nc5ccc(F)cc5)CC4)cc3)c2cc1OC + CC1OCC2(CCN(c3cnc(Sc4ccnc(N)c4Cl)c(N)n3)CC2)C1N = 65.6
• CCN1CCN(Cc2ccc(Nc3ncc(F)c(-c4cc(F)c5nc(C)n(C(C)C)c5c4)n3)nc2)CC1 + C=CC(=O)N1CCN(c2nc(=O)n(-c3c(C)ccnc3C(C)C)c3nc(-c4c(O)cccc4F)c(F)cc23)C(C)C1 = 113
• CC1(C)CCC(CN2CCN(c3ccc(C(=O)NS(=O)(=O)c4ccc(NCC5CCOCC5)c([N+](=O)[O-])c4)c(Oc4cnc5[nH]ccc5c4)c3)CC2)=C(c2ccc(Cl)cc2)C1 + C=CC(=O)N1CCN(c2nc(=O)n(-c3c(C)ccnc3C(C)C)c3nc(-c4c(O)cccc4F)c(F)cc23)C(C)C1 = 113

Please turn your attention to the following entry.
**Q:** Field request: viability, T/C | item: Cn1nccc1Nc1nccc(-c2cc3c(s2)C(C)(C)N(CCN2CCOCC2)C3=O)n1 + CNCc1ccccc1-c1csc(C(C)Nc2nc(C)nc3cc(OC)c(OC)cc23)c1
**A:** 71.9

* * *

Test system: KRAS-mutant PDC multicell tumor spheroid viability
test-protocol: Anticancer human tumor 521955-158-R2-J5-PDC cell line growth inhibition [KRAS2];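 note: viability read after seven days of drug exposure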
settings: second compound 0.1 µM; first compound 0.0316 µM; stronger effect = lower value
Overview of recorded viability, T/C for various compounds
Please reply with the bare figure in % and do not write the unit itself.

// solved cases for viability, T/C follow
* CC1OCC2(CCN(c3cnc(Sc4ccnc(N)c4Cl)c(N)n3)CC2)C1N (stereo not given) + C=CC(=O)N1CCN(c2nc(=O)n(-c3c(C)ccnc3C(C)C)c3nc(-c4c(O)cccc4F)c(F)cc23)C(C)C1 | 89.8
* Cn1nccc1Nc1nccc(-c2cc3c(s2)C(C)(C)N(CCN2CCOCC2)C3=O)n1 + CNCc1ccccc1-c1csc(C(C)Nc2nc(C)nc3cc(OC)c(OC)cc23)c1 | 99.7
* CC(C)n1nc(-c2ccc3oc(N)nc3c2)c2c(N)ncnc21 + COc1cc2nc(C)nc(NC(C)c3cc(N)cc(C(F)(F)F)c3)c2cc1OC1CCOC1 | 32.6
* O=C(c1cc(Cc2n[nH]c(=O)c3ccccc23)ccc1F)N1CCN(C(=O)C2CC2)CC1 + CC1OCC2(CCN(c3cnc(Sc4ccnc(N)c4Cl)c(N)n3)CC2)C1N | 67.2

Please turn your attention to the following entry.
**Q:** Field request: viability, T/C | item: CC1(C)CCC(CN2CCN(c3ccc(C(=O)NS(=O)(=O)c4ccc(NCC5CCOCC5)c([N+](=O)[O-])c4)c(Oc4cnc5[nH]ccc5c4)c3)CC2)=C(c2ccc(Cl)cc2)C1 + C=CC(=O)N1CCN(c2nc(OCC3CCCN3C)nc3c2CCN(c2cccc4cccc(C)c24)C3)CC1CC#N
**A:** 97.7
